target: human TLR7 (Homo sapiens, UniProt Q9NYK1); construct: host or cells: HEK293 (ATCC, CRL-1573), HEK-Blue hTLR7; experiment: HEK-Blue hTLR7 NF-κB/AP-1-inducible SEAP reporter cell assay; assay type: cell-based; conditions: Figure 1; 10 µg/mL to 10 pg/ml, 24 hours, SEAP read as OD at 655 nm
Sequence (Q9NYK1 27-1049): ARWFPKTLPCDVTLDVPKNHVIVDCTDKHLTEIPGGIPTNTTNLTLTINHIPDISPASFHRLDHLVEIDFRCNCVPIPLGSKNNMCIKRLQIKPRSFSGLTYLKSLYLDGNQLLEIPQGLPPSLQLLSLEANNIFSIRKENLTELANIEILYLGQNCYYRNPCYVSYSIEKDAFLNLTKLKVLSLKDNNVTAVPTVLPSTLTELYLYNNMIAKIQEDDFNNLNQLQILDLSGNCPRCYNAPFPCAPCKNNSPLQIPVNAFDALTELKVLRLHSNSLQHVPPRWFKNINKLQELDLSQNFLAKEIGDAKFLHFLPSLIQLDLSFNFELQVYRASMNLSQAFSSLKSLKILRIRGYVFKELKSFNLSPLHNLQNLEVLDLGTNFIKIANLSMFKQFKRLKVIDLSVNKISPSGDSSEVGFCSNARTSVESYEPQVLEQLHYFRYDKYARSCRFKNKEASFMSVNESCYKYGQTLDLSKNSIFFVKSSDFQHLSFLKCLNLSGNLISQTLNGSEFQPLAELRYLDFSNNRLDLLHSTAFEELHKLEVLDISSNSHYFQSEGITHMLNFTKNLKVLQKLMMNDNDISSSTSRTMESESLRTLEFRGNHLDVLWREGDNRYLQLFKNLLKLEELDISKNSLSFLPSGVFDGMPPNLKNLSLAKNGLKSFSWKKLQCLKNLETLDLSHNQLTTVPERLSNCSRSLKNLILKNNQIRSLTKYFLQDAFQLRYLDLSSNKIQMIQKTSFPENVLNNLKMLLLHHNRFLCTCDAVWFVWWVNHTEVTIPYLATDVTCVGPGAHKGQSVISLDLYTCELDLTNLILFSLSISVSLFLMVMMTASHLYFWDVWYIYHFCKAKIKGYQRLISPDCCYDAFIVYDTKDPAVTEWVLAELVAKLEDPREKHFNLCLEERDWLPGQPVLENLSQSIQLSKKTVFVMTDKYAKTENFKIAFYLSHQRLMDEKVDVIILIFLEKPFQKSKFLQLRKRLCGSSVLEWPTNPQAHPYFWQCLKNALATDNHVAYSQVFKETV

molecule	ability to activate hTLR7
CCCCCCCCCCCCCCCC(=O)OCC(CSC[C@H](N)C(=O)NCCCC[C@H](NC(=O)CNC(=O)c1ccc(Cn2c(O)nc3c(N)nc(NCCCC)nc32)cc1)C(=O)NCCCNCCCCNCCCN)OC(=O)CCCCCCCCCCCCCCC (stereo partly drawn)	activate hTLR7
CCCCCCCCCCCCCCCC(=O)OCC(CSC[C@H](N)C(=O)N[C@@H](CCC(=O)NCCCNCCCCNCCCN)C(=O)Nc1ccc(Cn2c(O)nc3c(N)nc(NCCCC)nc32)cc1)OC(=O)CCCCCCCCCCCCCCC (stereo partly drawn)	activate hTLR7
CCCCCCCCCCCCCCCC(=O)OCC(CSC[C@H](N)C(=O)NCCCNCCCCNCCCNC(=O)CNC(=O)c1ccc(Cn2c(O)nc3c(N)nc(NCCCC)nc32)cc1)OC(=O)CCCCCCCCCCCCCCC (stereo partly drawn)	activate hTLR7

* * *

biological target: human TLR7 (Homo sapiens, UniProt Q9NYK1); construct: host or cells: HEK293 (ATCC, CRL-1573), HEK-Blue hTLR7; assay: HEK-Blue hTLR7 NF-κB/AP-1-inducible SEAP reporter cell assay; format: cell-based; conditions: Figure 1; 10 µg/mL to 10 pg/ml, 24 hours, SEAP read as OD at 655 nm

molecule	ability to activate hTLR7
CCCCCCCCCCCCCCCC(=O)OCC(CSC[C@H](N)C(=O)N[C@@H](COC(=O)c1ccc(Cn2c(O)nc3c(N)nc(NCCCC)nc32)cc1)C(=O)NCCCNCCCCNCCCN)OC(=O)CCCCCCCCCCCCCCC (stereo partly drawn) [CL514]	activate hTLR7
CCCCCCCCCCCCCCCC(=O)OCC(CSC[C@H](N)C(=O)NCCCC[C@H](NC(=O)c1ccc(Cn2c(O)nc3c(N)nc(NCCCC)nc32)cc1)C(=O)NCCCNCCCCNCCCN)OC(=O)CCCCCCCCCCCCCCC (stereo partly drawn) [CL486]	activate hTLR7
CCCCCCCCCCCCCCCC(=O)OCC(CSC[C@H](N)C(=O)N[C@@H](CCCCNC(=O)CNC(=O)c1ccc(Cn2c(O)nc3c(N)nc(NCCCC)nc32)cc1)C(=O)NCCCNCCCCNCCCN)OC(=O)CCCCCCCCCCCCCCC (stereo partly drawn) [CL475]	activate hTLR7

* * *

target: human TLR2 (Homo sapiens, UniProt O60603); construct: host or cells: HEK293 (ATCC, CRL-1573), HEK-Blue hTLR2; assay: HEK-Blue hTLR2 NF-κB/AP-1-inducible SEAP reporter cell assay; type: cell-based; conditions: Figure 3; 10 µg/mL to 10 pg/ml, 24 hours, SEAP read as OD at 655 nm
Sequence (O60603 21-784): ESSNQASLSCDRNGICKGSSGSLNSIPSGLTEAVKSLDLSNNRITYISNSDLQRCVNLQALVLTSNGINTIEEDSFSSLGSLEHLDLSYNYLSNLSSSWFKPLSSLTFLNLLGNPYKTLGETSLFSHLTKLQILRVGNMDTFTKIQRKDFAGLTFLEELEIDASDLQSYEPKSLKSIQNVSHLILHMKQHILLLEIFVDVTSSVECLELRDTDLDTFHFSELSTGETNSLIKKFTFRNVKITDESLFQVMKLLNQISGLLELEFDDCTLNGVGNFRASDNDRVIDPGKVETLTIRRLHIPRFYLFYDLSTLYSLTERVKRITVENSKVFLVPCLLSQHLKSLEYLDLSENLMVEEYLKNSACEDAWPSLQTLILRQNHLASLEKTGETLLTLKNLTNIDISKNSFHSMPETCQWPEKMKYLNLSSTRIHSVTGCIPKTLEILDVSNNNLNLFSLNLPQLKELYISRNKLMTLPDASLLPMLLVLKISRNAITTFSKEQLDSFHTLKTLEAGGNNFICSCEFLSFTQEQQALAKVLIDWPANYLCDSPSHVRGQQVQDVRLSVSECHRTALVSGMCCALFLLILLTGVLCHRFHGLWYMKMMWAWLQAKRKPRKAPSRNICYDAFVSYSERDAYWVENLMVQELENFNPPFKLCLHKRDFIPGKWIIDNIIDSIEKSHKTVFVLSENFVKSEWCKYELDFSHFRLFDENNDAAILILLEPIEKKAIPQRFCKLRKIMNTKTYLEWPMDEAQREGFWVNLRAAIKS
reportedProperty: ability to activate hTLR2

molecule	testedOn	reportedMeasurement
CCCCCCCCCCCCCCCC(=O)OCC(CSC[C@H](N)C(=O)NCCCNCCCCNCCCNC(=O)CNC(=O)c1ccc(Cn2c(O)nc3c(N)nc(NCCCC)nc32)cc1)OC(=O)CCCCCCCCCCCCCCC (stereo partly drawn) [CL553]	human TLR2 (Homo sapiens, UniProt O60603)	activate hTLR2
CCCCCCCCCCCCCCCC(=O)OCC(CSC[C@H](N)C(=O)NCCCC[C@H](NC(=O)CNC(=O)c1ccc(Cn2c(O)nc3c(N)nc(NCCCC)nc32)cc1)C(=O)NCCCNCCCCNCCCN)OC(=O)CCCCCCCCCCCCCCC (stereo partly drawn) [CL487]	human TLR2 (Homo sapiens, UniProt O60603)	activate hTLR2
CCCCCCCCCCCCCCCC(=O)OCC(CSC[C@H](N)C(=O)N[C@@H](COC(=O)c1ccc(Cn2c(O)nc3c(N)nc(NCCCC)nc32)cc1)C(=O)NCCCNCCCCNCCCN)OC(=O)CCCCCCCCCCCCCCC (stereo partly drawn) [CL514]	human TLR2 (Homo sapiens, UniProt O60603)	activate hTLR2
CCCCCCCCCCCCCCCC(=O)OCC(CSC[C@H](N)C(=O)N[C@@H](CCC(=O)NCCCNCCCCNCCCN)C(=O)Nc1ccc(Cn2c(O)nc3c(N)nc(NCCCC)nc32)cc1)OC(=O)CCCCCCCCCCCCCCC (stereo partly drawn) [CL527]	human TLR2 (Homo sapiens, UniProt O60603)	activate hTLR2
CCCCCCCCCCCCCCCC(=O)OCC(CSC[C@H](N)C(=O)N[C@@H](CCCCNC(=O)CNC(=O)c1ccc(Cn2c(O)nc3c(N)nc(NCCCC)nc32)cc1)C(=O)NCCCNCCCCNCCCN)OC(=O)CCCCCCCCCCCCCCC (stereo partly drawn) [CL475]	human TLR2 (Homo sapiens, UniProt O60603)	activate hTLR2

Inquiry: For the molecule CCCCCCCCCCCCCCCC(=O)OCC(CSC[C@H](N)C(=O)NCCCC[C@H](NC(=O)c1ccc(Cn2c(O)nc3c(N)nc(NCCCC)nc32)cc1)C(=O)NCCCNCCCCNCCCN)OC(=O)CCCCCCCCCCCCCCC (stereo partly drawn) [CL486] , what ability to activate hTLR2 is on record?
Reply text: activate hTLR2
